FYI, the data here is from ChEMBL document CHEMBL1153196.

Test: Lipophilicity, log D of the compound
Assay type: physicochemical
Details: octanol/water
Hi! Could you tag entries with logD below 2 as Met, and those at or above as Not met? Much appreciated.

molecule	assignedClass
Cc1nn(-c2ccccc2)c(C)c1/C=N/N1CCN(Cc2ccccc2)CC1	Not met

Query block: Given C[C@@H]1C[C@H]2[C@@H]3CCC4=CC(=O)C=C[C@]4(C)[C@@]3(F)[C@@H](O)C[C@]2(C)[C@@]1(O)C(=O)CO , is recorded logD strictly lower than 2?
Result block: Met

Query block: Given CC(C(=O)O)c1cccc(C(=O)c2ccccc2)c1 (stereo not drawn) , is recorded logD strictly lower than 2?
Result block: Met

Query block: Given CCCn1c(=O)[nH]c(=O)c2[nH]cnc21 , is recorded logD strictly lower than 2?
Result block: Met

Query block: Given Nc1ccc(S(=O)(=O)Nc2ccccn2)cc1 , is recorded logD strictly lower than 2?
Result block: Met

Query block: Given Cc1cc(=O)n(-c2ccccc2)n1C [ANTIPYRINE] , is recorded logD strictly lower than 2?
Result block: Met

Query block: Given NC(=O)N1c2ccccc2C=Cc2ccccc21 [CARBAMAZEPINE] , is recorded logD strictly lower than 2?
Result block: Not met

Query block: Given COc1ccc2c(c1)c(CC(=O)O)c(C)n2C(=O)c1ccc(Cl)cc1 , is recorded logD strictly lower than 2?
Result block: Met

Query block: Given C[C@]12CC[C@H]3[C@@H](CCC4=CC(=O)CC[C@@]43C)[C@@H]1CC[C@@H]2O , is recorded logD strictly lower than 2?
Result block: Not met

---

Test: Lipophilicity, log D of the compound
Type: physicochemical
Conditions: octanol/water
Hi! Could you tag entries with logD below -0.3 as 1 (yes), and those at or above as 0 (no)? Much appreciated.

molecule	assignedClass
CC(C)Cn1c(=O)n(C)c(=O)c2[nH]cnc21 [ISOBUTYLMETHYLXANTHINE]	0 (no)
Oc1cccc2ncccc12	0 (no)
Cl.Clc1cccc(Cl)c1NC1=NCCN1 [CLONIDINE HYDROCHLORIDE]	0 (no)
CN1C(C(=O)Nc2ccccn2)=C(O)c2ccccc2S1(=O)=O [PIROXICAM]	1 (yes)
C[C@H](c1ccccc1)N(C)c1cc(C(F)(F)F)c(C#N)cn1	0 (no)

Query block: Given COCCc1ccc(OCC(O)CNC(C)C)cc1 (centres undefined) [METOPROLOL] , is recorded logD strictly lower than -0.3?
Result block: 1 (yes)

Query block: Given CC(C)(C)NCC(O)c1cc(O)cc(O)c1 (centres undefined) [TERBUTALINE] , is recorded logD strictly lower than -0.3?
Result block: 1 (yes)

Query block: Given CC1(C)C(=O)N(c2ccc(C#N)c(C(F)(F)F)c2)C(=O)N1CCCCO [RU-58841] , is recorded logD strictly lower than -0.3?
Result block: 0 (no)

Query block: Given CCOC(=O)[C@H](CCc1ccccc1)N[C@@H](C)C(=O)N1CCC[C@H]1C(=O)O.O=C(O)/C=C\C(=O)O [ENALAPRIL MALEATE] , is recorded logD strictly lower than -0.3?
Result block: 1 (yes)

---

Test: Lipophilicity, log D of the compound
Assay type: physicochemical
Details: octanol/water
Class membership depends on logD alone; the intervals are LOW (below 0.05), MEDIUM (0.05 to below 2), HIGH (2 or more)

molecule	assignedClass
Nc1cc(N2CCCCC2)nc(N)[n+]1[O-] [MINOXIDIL]	LOW
CC(C)(C)c1ccc(C(O)CCCN2CCC(C(O)(c3ccccc3)c3ccccc3)CC2)cc1 (centres undefined) [TERFENADINE]	HIGH
CC(=O)Nc1cnc(-c2ccccc2)o1	MEDIUM
C[C@]12C[C@H](O)[C@H]3[C@@H](CCC4=CC(=O)CC[C@@]43C)[C@@H]1CC[C@@H]2C(=O)CO [CORTICOSTERONE]	MEDIUM
NS(=O)(=O)c1cc2c(cc1Cl)N=CNS2(=O)=O [CHLOROTHIAZIDE]	LOW

Here's the next entry for you.
Query block: Sort into band: COc1ccc2[nH]c([S+]([O-])Cc3ncc(C)c(OC)c3C)nc2c1 (centres undefined) [OMEPRAZOLE]
Result block: HIGH
